Where do these numbers come from? They come from ChEMBL document CHEMBL5370660.

# experimental_target: Mitogen-activated protein kinase kinase kinase 2 (Homo sapiens)
# Sequence (Q9Y2U5 whole entry): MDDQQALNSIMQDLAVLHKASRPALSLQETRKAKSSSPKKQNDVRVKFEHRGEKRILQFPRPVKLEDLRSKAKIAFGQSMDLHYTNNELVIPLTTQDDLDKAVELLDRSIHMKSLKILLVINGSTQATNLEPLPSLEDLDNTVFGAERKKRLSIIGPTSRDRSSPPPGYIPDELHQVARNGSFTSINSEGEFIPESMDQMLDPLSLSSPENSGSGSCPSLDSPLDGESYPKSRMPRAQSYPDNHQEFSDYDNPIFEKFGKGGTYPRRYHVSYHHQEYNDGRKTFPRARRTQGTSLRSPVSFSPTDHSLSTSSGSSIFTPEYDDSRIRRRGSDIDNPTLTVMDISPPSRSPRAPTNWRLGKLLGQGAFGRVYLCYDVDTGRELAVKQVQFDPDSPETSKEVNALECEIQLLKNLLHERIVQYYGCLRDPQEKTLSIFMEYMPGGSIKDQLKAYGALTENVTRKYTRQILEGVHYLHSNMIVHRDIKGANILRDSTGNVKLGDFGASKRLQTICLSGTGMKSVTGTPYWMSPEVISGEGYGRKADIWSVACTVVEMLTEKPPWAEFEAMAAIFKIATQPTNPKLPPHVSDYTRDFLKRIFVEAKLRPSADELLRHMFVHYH
# protocol_details: Inhibition of MAP3K2 (unknown origin)
measurement_name: IC50

record_smiles: COc1ccccc1Nc1cc(Nc2ccc(CC(=O)O)cn2)ncc1C(N)=O
IC50: < 100 nM

Prompt: Please tell me: IC50 of COC[C@@H](C)OC(=O)Cc1ccc(Nc2cc(Nc3ccccc3OC)c(C(N)=O)cn2)nc1 , system Mitogen-activated protein kinase kinase kinase 2 (Homo sapiens)?
Response: < 100 nM

====

# protocol_details: Stability of compound under temperature stress assessed as compound degradation at 50 degreeC measured after 7 days using crystalline form of sample
# Type: physicochemical
# condition_label: time 7 day; read-out: Drug degradation
measurement_name: degraded at 168 h (%)
Please respond with the number in % and leave the unit unwritten.

Below, 2 compounds whose answers are already recorded.
record_smiles: COc1ccccc1Nc1cc(Nc2ccc(CC(=O)O[C@H]3CCOC3)cn2)ncc1C(N)=O
unit: %
value: 2.4
//
record_smiles: COC[C@@H](C)OC(=O)Cc1ccc(Nc2cc(Nc3ccccc3OC)c(C(N)=O)cn2)nc1
unit: %
value: 0.4

Prompt: Give the measured degraded at 168 h of CCOC(=O)Cc1ccc(Nc2cc(Nc3ccccc3OC)c(C(N)=O)cn2)nc1 .
Response: 2

====

# protocol_details: Permeability of compound
# Type: ADME
# condition_label: not told; read-out: permeability
Please note: 1 applies when Papp is 20 ×10⁻⁶ cm/s or greater, and 0 applies otherwise.

Look over these answered cases.
record_smiles: CCOC(=O)Cc1ccc(Nc2cc(Nc3ccccc3Cl)c(C(N)=O)cn2)nc1
class_name: 0
//
record_smiles: CCOC(=O)Cc1ccc(Nc2cc(Nc3ccccc3OC)c(C(N)=O)cn2)nc1
class_name: 1
//
record_smiles: NC(=O)c1cnc(Nc2ccc(CC(=O)O)cn2)cc1Nc1ccccc1Cl
class_name: 0
//
record_smiles: COc1ccccc1Nc1cc(Nc2ccc(CC(=O)O)cn2)ncc1C(N)=O
class_name: 0
//
record_smiles: Cc1cccc(Nc2cc(Nc3ccccc3Cl)c(C(N)=O)cn2)n1
class_name: 0

Below: the item to evaluate.
Prompt: Please indicate if the recorded Papp for COC[C@@H](C)OC(=O)Cc1ccc(Nc2cc(Nc3ccccc3OC)c(C(N)=O)cn2)nc1 meets or exceeds 20 ×10⁻⁶ cm/s.
Response: 0

====

# experimental_target: Tyrosine-protein kinase JAK2 (Homo sapiens)
# Sequence (O60674 whole entry): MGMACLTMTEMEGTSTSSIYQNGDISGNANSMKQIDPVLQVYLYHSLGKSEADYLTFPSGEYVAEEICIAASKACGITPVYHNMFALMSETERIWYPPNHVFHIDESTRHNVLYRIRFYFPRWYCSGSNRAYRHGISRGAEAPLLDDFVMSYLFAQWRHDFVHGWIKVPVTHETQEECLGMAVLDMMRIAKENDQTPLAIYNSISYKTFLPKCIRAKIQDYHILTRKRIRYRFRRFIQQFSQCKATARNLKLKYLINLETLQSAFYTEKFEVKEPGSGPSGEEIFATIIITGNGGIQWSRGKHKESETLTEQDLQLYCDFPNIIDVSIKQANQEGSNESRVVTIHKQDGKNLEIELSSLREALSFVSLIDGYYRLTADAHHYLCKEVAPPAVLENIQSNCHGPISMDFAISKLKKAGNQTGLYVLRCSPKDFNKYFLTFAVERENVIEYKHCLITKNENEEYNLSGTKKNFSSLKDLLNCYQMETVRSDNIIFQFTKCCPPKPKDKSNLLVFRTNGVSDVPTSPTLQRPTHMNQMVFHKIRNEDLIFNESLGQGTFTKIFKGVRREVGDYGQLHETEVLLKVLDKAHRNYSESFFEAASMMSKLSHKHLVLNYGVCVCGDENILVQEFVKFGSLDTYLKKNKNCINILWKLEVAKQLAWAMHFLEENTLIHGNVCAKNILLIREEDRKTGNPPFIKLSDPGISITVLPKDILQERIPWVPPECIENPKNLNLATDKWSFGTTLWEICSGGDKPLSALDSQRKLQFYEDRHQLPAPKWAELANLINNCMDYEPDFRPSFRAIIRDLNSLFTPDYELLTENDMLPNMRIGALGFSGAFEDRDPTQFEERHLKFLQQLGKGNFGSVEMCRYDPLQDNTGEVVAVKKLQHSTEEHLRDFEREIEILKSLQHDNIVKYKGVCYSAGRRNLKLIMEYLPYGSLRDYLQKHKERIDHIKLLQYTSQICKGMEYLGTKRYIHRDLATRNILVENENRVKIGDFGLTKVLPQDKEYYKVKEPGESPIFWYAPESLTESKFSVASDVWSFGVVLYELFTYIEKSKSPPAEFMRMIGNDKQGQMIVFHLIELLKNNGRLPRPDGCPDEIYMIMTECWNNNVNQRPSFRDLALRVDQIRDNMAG
pIC50: −log10 of the molar value.
Each entry gets not met if its pIC50 stays under 8, and met if its pIC50 is 8 or above.

record_smiles: CC(C)OC(=O)Cc1ccc(Nc2cc(Nc3ccccc3Cl)c(C(N)=O)cn2)nc1
class_name: not met
//
record_smiles: CCOC(=O)c1ccc(Nc2cc(Nc3ccccc3Cl)c(C(N)=O)cn2)nc1
class_name: not met
//
record_smiles: COC[C@@H](C)OC(=O)Cc1ccc(Nc2cc(Nc3ccccc3OC)c(C(N)=O)cn2)nc1
class_name: met

Prompt: Hi team, for COC[C@H](C)OC(=O)Cc1ccc(Nc2cc(Nc3ccccc3OC)c(C(N)=O)cn2)nc1 , is the recorded pIC50 at or above 8?
Response: met

Prompt: Assess whether reported pIC50 for CCOC(=O)Cc1ccc(Nc2cc(Nc3ccccc3OC)c(C(N)=O)cn2)nc1 sits at 8 or higher.
Response: not met

Prompt: Is reported pIC50 greater than or equal to 8 here: COc1ccccc1Nc1cc(Nc2ccc(CC(=O)O[C@@H]3CCOC3)cn2)ncc1C(N)=O
Response: met

Prompt: Form field: pIC50 at least 8? Entry: CCOC(=O)CCc1ccc(Nc2cc(Nc3ccccc3Cl)c(C(N)=O)cn2)nc1
Response: not met

Prompt: Hi team, for COc1ccccc1Nc1cc(Nc2ccc(CC(=O)O[C@H]3CCOC3)cn2)ncc1C(N)=O , is the recorded pIC50 at or above 8?
Response: met

====

# experimental_target: JAK3/JAK1 (Homo sapiens, UniProt P23458+P52333)
# Sequence (P52333 whole entry): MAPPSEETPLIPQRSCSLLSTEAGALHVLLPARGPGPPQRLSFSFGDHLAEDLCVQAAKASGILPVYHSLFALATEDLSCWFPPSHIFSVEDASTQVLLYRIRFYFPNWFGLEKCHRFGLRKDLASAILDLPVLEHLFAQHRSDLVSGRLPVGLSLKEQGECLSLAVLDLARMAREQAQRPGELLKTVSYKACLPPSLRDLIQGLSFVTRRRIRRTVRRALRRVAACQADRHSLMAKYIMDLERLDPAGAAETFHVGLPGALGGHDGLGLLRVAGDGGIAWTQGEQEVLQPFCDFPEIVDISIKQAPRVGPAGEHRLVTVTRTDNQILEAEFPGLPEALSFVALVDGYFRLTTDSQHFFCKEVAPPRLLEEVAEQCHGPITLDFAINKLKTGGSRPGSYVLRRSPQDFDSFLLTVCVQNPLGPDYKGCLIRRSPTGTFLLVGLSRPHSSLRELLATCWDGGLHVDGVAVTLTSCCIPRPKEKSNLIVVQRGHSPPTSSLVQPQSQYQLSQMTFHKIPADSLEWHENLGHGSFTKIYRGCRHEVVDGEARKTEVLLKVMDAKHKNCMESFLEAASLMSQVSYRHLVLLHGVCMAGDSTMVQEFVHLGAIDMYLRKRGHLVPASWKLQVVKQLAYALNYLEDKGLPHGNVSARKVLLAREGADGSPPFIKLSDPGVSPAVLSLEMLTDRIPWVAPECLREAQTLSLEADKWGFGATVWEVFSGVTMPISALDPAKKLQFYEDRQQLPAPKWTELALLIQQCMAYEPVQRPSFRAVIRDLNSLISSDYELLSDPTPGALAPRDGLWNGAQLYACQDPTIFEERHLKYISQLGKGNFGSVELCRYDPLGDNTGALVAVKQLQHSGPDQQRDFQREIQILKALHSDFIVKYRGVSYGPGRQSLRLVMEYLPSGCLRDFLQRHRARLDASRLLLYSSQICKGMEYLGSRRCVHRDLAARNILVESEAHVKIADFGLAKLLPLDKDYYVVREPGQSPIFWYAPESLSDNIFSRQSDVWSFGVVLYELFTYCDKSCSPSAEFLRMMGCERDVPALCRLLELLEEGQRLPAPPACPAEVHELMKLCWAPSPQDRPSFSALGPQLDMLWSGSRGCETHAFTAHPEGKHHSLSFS
# Sequence (P23458 whole entry): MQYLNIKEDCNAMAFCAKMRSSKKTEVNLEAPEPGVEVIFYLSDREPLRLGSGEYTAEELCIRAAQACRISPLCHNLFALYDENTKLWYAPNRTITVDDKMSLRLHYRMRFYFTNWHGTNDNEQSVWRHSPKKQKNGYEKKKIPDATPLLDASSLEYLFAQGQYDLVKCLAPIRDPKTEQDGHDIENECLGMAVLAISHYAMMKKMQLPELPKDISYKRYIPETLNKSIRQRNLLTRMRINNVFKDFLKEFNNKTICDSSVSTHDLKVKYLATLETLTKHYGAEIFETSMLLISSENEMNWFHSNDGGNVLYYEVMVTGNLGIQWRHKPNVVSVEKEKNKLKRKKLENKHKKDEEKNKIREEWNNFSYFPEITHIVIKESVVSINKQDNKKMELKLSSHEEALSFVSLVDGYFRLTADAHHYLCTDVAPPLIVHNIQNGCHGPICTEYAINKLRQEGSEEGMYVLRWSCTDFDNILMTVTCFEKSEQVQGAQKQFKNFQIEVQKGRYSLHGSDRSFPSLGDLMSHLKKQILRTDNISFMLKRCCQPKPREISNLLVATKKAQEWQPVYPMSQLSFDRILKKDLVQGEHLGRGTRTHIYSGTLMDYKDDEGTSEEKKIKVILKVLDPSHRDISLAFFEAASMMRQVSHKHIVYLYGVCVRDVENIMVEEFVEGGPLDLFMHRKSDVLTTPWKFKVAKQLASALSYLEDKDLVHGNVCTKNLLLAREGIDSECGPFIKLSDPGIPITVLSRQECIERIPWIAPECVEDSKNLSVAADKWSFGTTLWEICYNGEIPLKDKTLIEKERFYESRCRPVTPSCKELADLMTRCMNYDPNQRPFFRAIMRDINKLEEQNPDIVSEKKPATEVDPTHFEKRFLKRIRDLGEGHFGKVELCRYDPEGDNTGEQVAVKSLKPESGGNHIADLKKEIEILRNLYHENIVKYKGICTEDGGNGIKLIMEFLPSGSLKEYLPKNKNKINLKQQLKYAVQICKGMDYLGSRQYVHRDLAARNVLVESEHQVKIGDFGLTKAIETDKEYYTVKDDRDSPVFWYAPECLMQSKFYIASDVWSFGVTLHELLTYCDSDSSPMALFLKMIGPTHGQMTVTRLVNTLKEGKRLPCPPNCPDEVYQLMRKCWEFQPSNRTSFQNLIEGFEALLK
# protocol_details: Inhibition of JAK1/3-mediated STAT5 phosphorylation in human M07E cells preincubated for 30 mins followed by IL-15 stimulation measured after 15 mins by flow cytometry
# Format: cell-based
measurement_name: pIC50
API: returns pIC50 as number; meaning -log10 of concentration in mol/L.

record_smiles: COc1ccccc1Nc1cc(Nc2ccc(CC(=O)O[C@H]3CCOC3)cn2)ncc1C(N)=O
pIC50: 7.05
//
record_smiles: CCOC(=O)Cc1ccc(Nc2cc(Nc3ccccc3Cl)c(C(N)=O)cn2)nc1
pIC50: 7.62
//
record_smiles: COCCOC(=O)Cc1ccc(Nc2cc(Nc3ccccc3OC)c(C(N)=O)cn2)nc1
pIC50: 7.20

// switching to the query compound
Prompt: Entry COC[C@H](C)OC(=O)Cc1ccc(Nc2cc(Nc3ccccc3OC)c(C(N)=O)cn2)nc1 has what pIC50?
Response: 6.94

====

Entries and their solubility thermodynamic
# protocol_details: Saturation solubility of compound in PEG400/transcutol/benzyl alcohol/water mixture using crystalline form of sample
# Type: physicochemical

Worked cases, answers included:
record_smiles: CCOC(=O)Cc1ccc(Nc2cc(Nc3ccccc3OC)c(C(N)=O)cn2)nc1
measurement_name: solubility thermodynamic
value: ≥ 9000 µg/mL
//
record_smiles: Cc1cccc(Nc2cc(Nc3ccccc3Cl)c(C(N)=O)cn2)n1
measurement_name: solubility thermodynamic
value: 2800 µg/mL
//
record_smiles: COC[C@@H](C)OC(=O)Cc1ccc(Nc2cc(Nc3ccccc3OC)c(C(N)=O)cn2)nc1
measurement_name: solubility thermodynamic
value: > 18000 µg/mL

Note: attention shifts to another entry.
Prompt: Given COc1ccccc1Nc1cc(Nc2ccc(CC(=O)O[C@H]3CCOC3)cn2)ncc1C(N)=O , state its recorded solubility thermodynamic.
Response: > 18000 µg/mL

====

# protocol_details: Lipophilicity, LogD of compound
# Assay type: physicochemical
# condition_label: octanol/water
measurement_name: logD
Please reply with the number alone, leaving off any unit.

record_smiles: COc1ccccc1Nc1cc(Nc2ccc(CC(=O)O)cn2)ncc1C(N)=O
value: 0.25
--
record_smiles: Cc1cccc(Nc2cc(Nc3ccccc3Cl)c(C(N)=O)cn2)n1
value: 4.4
--
record_smiles: COCCOC(=O)Cc1ccc(Nc2cc(Nc3ccccc3OC)c(C(N)=O)cn2)nc1
value: 2.9
--
record_smiles: NC(=O)c1cnc(Nc2ccc(CC(=O)O)cn2)cc1Nc1ccccc1Cl
value: 0.4
--
record_smiles: CCOC(=O)Cc1ccc(Nc2cc(Nc3ccccc3Cl)c(C(N)=O)cn2)nc1
value: 4.6
--
record_smiles: CCOC(=O)Cc1ccc(Nc2cc(Nc3ccccc3OC)c(C(N)=O)cn2)nc1
value: 2.9

Prompt: Reported logD for COC[C@@H](C)OC(=O)Cc1ccc(Nc2cc(Nc3ccccc3OC)c(C(N)=O)cn2)nc1 : what is it?
Response: 3.3

Prompt: Look at this compound and give its reported logD. COc1ccccc1Nc1cc(Nc2ccc(CC(=O)O[C@H]3CCOC3)cn2)ncc1C(N)=O
Response: 3

Prompt: Any idea what logD was measured for COC(=O)Cc1ccc(Nc2cc(Nc3ccccc3Cl)c(C(N)=O)cn2)nc1 ?
Response: 3.8

====

# protocol_details: Thermodynamic solubility of the compound at pH 6.8 using crystalline form of sample
# Format: physicochemical
# condition_label: read-out: Therm_solubility
Consider the following compounds and their measured solubility thermodynamic readings.
# unit: µg/mL | format: bare number

record_smiles: Cc1cccc(Nc2cc(Nc3ccccc3Cl)c(C(N)=O)cn2)n1
unit: µg/mL
solubility thermodynamic: 0.1
//
record_smiles: CCOC(=O)Cc1ccc(Nc2cc(Nc3ccccc3OC)c(C(N)=O)cn2)nc1
unit: µg/mL
solubility thermodynamic: 1

Here's the next entry for you.
Prompt: I'd like to know its solubility thermodynamic. The compound in question is COc1ccccc1Nc1cc(Nc2ccc(CC(=O)O[C@H]3CCOC3)cn2)ncc1C(N)=O
Response: 31

====

# experimental_target: JAK2/JAK1 (Homo sapiens, UniProt O60674+P23458)
# Sequence (P23458 whole entry, one chain of several): as the sequence (P23458 whole entry) above
# protocol_details: Inhibition of JAK1/2-mediated STAT1 phosphorylation in human M07E cells preincubated for 30 mins followed by IFN-alpha stimulation measured after 15 mins by flow cytometry
We label by threshold. Values of IC50 strictly beneath 0.06 µM are True. Values of 0.06 µM and up are False.

record_smiles: Cc1cccc(Nc2cc(Nc3ccccc3Cl)c(C(N)=O)cn2)n1
experimental_target: JAK2/JAK1 (Homo sapiens, UniProt O60674+P23458)
class_name: False

Prompt: Given the entry COc1ccccc1Nc1cc(Nc2ccc(CC(=O)O[C@H]3CCOC3)cn2)ncc1C(N)=O , would its reported IC50 be below 0.06 µM?
Response: True

Prompt: Lab note: IC50 threshold 0.06 µM. Does this compound come in strictly under it? CCOC(=O)Cc1ccc(Nc2cc(Nc3ccccc3OC)c(C(N)=O)cn2)nc1
Response: True

====

# protocol_details: Metabolic stability in human skin S9 fraction measured upto 120 mins by LC-MS analysis
# Format: ADME, subcellular
measurement_name: half-life (min)
Report the figure in min without appending any unit label.

Example entries and their recorded answers appear below.
record_smiles: CC(C)OC(=O)Cc1ccc(Nc2cc(Nc3ccccc3Cl)c(C(N)=O)cn2)nc1
value: 67
//
record_smiles: COC(=O)Cc1ccc(Nc2cc(Nc3ccccc3Cl)c(C(N)=O)cn2)nc1
value: 12
//
record_smiles: CCOC(=O)COc1ccc(Nc2cc(Nc3ccccc3Cl)c(C(N)=O)cn2)nc1
value: 4

Next compound, half-life to be filled in.
Prompt: Give its half-life value. Item: CCOC(=O)Cc1ccc(Nc2cc(Nc3ccccc3OC)c(C(N)=O)cn2)nc1
Response: 12
